- Assay target: human GIP receptor (bioGIPR) (Homo sapiens)
- Construct: Biotinylate extracellular of the human GIP receptor (bioGIPR, Proteros biostructures GmbH, lot #02/2b); purchased Proteros biostructures GmbH lot #02/2b
- Sequence (P48546 22-138 limits assumed): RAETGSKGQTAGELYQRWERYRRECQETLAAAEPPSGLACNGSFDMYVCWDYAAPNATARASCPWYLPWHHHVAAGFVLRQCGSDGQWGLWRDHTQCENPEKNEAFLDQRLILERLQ
- Assay comment: Surface plasmon resonance (SPR) based binding assay
- Particulars: SPR, Single Cycle Kinetic mode, 25° C., 1:1 Langmuir binding model; read-out: pKD Category (converted)
- Protocol: Surface plasmon resonance (SPR) studies were performed using a Biacore™ T200 SPR system. Briefly, polarized light is directed towards a gold-labeled sensor surface, and minimum intensity reflected light is detected. […] For each test compound, SPR raw data in the form of resonance units (RU) were plotted as sensorgrams using the Biacore™ T200 control software. […] The pKD value (negative decadic logarithm of dissociation constant) was calculated in the IDBS excel template.
*1 amine or outer side, *2 acyl side, *3 side chain or, on linkers, in order; H or OH if unused. Where a SMILES comes first, the peptide text is derived from it. Bridges are numbered along the chain shown (N, C = ends). [ ]: non-standard residue; d: D form. The star is where a group is joined. X3 = O=C(O)CN1CCN(CC(=O)O)CCN(CC(=O)NCCCOCCOCCOCCCN*)CCN(CC(=O)O)CC1; Trp(5-Cl) = N[C@@H](Cc1c[nH]c2ccc(Cl)cc12)C(=O)O; Pro(4R-NH2) = N[C@H]1CN[C@H](C(=O)O)C1; X7 = c1cc(CSCCN[*:2])cc(C[*:1])c1; Suc = O=C(CCC(=O)[*:2])[*:1]; Api = NC1(C(=O)O)CCNCC1
Quantity: Kd

Entry under test: CC[C@H](C)[C@@H]1NC(=O)[C@H](CC(C)C)NC(=O)C2(CCNCC2)NC(=O)[C@@H](NC(=O)[C@@H](CC(C)C)NC(=O)[C@H](CCC(=O)O)NC(=O)[C@@H]2C[C@@H](N)CN2C(=O)[C@H](Cc2c[nH]c3ccc(Cl)cc23)NC(=O)[C@H](Cc2c[nH]c3ccccc23)NC(=O)[C@H](CC(=O)O)NC(=O)CCC(=O)NCCCOCCOCCOCCCNC(=O)CN2CCN(CC(=O)O)CCN(CC(=O)O)CCN(CC(=O)O)CC2)CSCc2cccc(c2)CSCCNC1=O [GIP-112] ({X3-Suc}-DW[Trp(5-Cl)][Pro(4R-NH2)]E[dL]C[Api]LI; linker 7-C via X7) . Its Kd was < 1 nM
